Item-by-item account of TGI
test system: BT-549 breast; assay: NCI tumour cell line growth inhibition, 48 h
parameterMeasured: TGI (µM)

molecule	valueRelationSign	observedResult
C=CCC1(O)c2ccccc2C(=O)c2c(NCCN(CC(=O)OCC)CC(=O)OCC)cccc21 (configuration not stated)	>	100
CNCCCn1c2c(c3ccc([N+](=O)[O-])cc3c1=O)C(=O)c1cc(OC)cnc1-2	=	2.56
Cc1ccc(/C=C/c2nnc(N/N=C/c3ccc4c(c3)OCO4)[nH]c2=O)cc1	=	33.9
O=C(c1cccs1)N(C(=S)OC12CC3CC(CC(C3)C1)C2)c1ccccc1	>	100
CCC1CN2C(=N1)c1ccccc1-c1cc(Cl)ccc12 (configuration not stated)	=	50.3
CCOC(=O)c1c2c(n(Cc3ccc(Cl)cc3Cl)c1C)-c1nc[nH]c1C(=O)C2=O	=	31.8
C[C@@H](c1ccccc1)N1CN(C(=O)OCc2ccccc2)C(C)(C)CC1=O	>	100

###

Quick list: GI50 per entry.
test system: MDA-MB-231 breast; assay: NCI tumour cell line growth inhibition, 48 h
parameterMeasured: GI50

compound	observedResult
COc1cccc(-c2nn(-c3ccccc3)cc2-c2ccnc(NCCCNC(=O)Nc3ccc(Cl)c(Cl)c3)c2)c1	1970 nM
O=C(Cn1c(=O)c(-c2ccccc2)nc2ccccc21)Nc1ccc(F)cc1	99700 nM
CC1OC(n2c3ccccc3c3c4c(c5c6ccccc6[nH]c5c32)C(=O)N(CCN[C@@H]2CCC[C@H]2N)C4=O)CC(O)C1O (stereo not given in full)	1880 nM
CCOC(=O)c1cc2c(n1Cc1cccc(OC)c1)-c1oncc1CCC2	4060 nM
CCC(C)[C@H]1O[C@]2(C=C[C@@H]1C)C[C@@H]1C[C@@H](C/C=C(\C)[C@@H](OC3C[C@H](OC)C(O[C@H]4C[C@H](OC)[C@@H](O)[C@H](C)O4)[C@H](C)O3)[C@@H](C)/C=C/C=C3\CO[C@@H]4[C@H](O)C(C)=C[C@@H](C(=O)O1)[C@]34O)O2 (stereo not given in full)	1420 nM

###

system: HT29 colon; assay: NCI tumour cell line growth inhibition, 48 h

compound	systemName	TGI
Cn1c2ccc3cc2c(=S)c2cc(ccc21)OCCOCCOCCOCCOCCO3	HT29 colon	> 10 µM
N#Cc1c(-c2ccc([N+](=O)[O-])cc2)c(C#N)c(=O)n(NS(=O)(=O)c2ccccc2)c1-c1ccccc1	HT29 colon	> 100 µM
O=C(CCCN1CCC2(CC1)CC(=O)N(N1CCCCCC1)C2=O)c1ccccc1	HT29 colon	> 100 µM
O=c1cccccc1[O-].O=c1cccccc1[O-].[O]=[U+2]=[O]	HT29 colon	> 100 µM
COc1cccc2c1Cc1cc(-c3ccccc3)[n+](C)n1-2	HT29 colon	32 µM
Cn1c(O)c(C=Nc2ccccc2[N+](=O)[O-])c(=O)n(C)c1=O	HT29 colon	> 100 µM
C=CCc1cccc2cc(C(=O)Nc3ccccc3)c(=N)oc12	HT29 colon	> 100 µM
O=C1Nc2nc3ccccc3n2N=C2CCCC12 (stereo not given)	HT29 colon	> 100 µM
c1csc(-c2cn3nc(-c4c[nH]c5ccccc45)sc3n2)c1	HT29 colon	10.2 µM
C=C1/C(=C\C=C2/CCC[C@]3(C)[C@@H]([C@H](C)CCCC(C)(C)O)CC[C@@H]23)C[C@@H](OC(=O)CBr)C[C@@H]1O	HT29 colon	10.5 µM

###

system: MCF7 breast; experiment: NCI tumour cell line growth inhibition, 48 h; in the data active = GI50 below about 0.43 µM; inactive = the rest
Possible outcomes: 1 = active, 0 = inactive

compound	systemName	assignedCategory
c1csc(-c2cn3nc(-c4c[nH]c5ccccc45)sc3n2)c1	MCF7 breast	0
O=c1oc(Cl)c(Cl)c2ccccc12	MCF7 breast	0
CNCCCn1c2c(c3ccc([N+](=O)[O-])cc3c1=O)C(=O)c1cc(OC)cnc1-2	MCF7 breast	1
COc1cc2c3c(n(CCCCN)c(=O)c2cc1OC)-c1cc2c(cc1C3=O)OCO2	MCF7 breast	1
CCN(Cc1ccc(F)cc1)c1ccc(CO)c(F)c1	MCF7 breast	0
Cc1ccc(C(CC(=O)c2ccccc2)C2C(=O)NC(=O)NC2=O)cc1 (stereo unspecified)	MCF7 breast	0

###

tested on: PC-3 prostate; assay: NCI tumour cell line growth inhibition, 48 h; in the data active = GI50 below about 0.43 µM; inactive = the rest
Classes used: active, inactive

molecule	assignedCategory
Cc1ccc(C(CC(=O)c2ccccc2)C2C(=O)NC(=O)NC2=O)cc1 (centres undefined)	inactive
Cc1ccc(-c2nc(C#N)c(S(=O)(=O)n3nc(C)cc3N)o2)cc1	inactive
COc1cc2c3c(n(CCCCN)c(=O)c2cc1OC)-c1cc2c(cc1C3=O)OCO2	active
O=S(=O)(Nc1ccc(Br)c(Cl)c1)c1ccc(-c2cnc(C3CC3)o2)cc1	inactive

###

tested on: HL-60(TB) leukemia; assay: NCI tumour cell line growth inhibition, 48 h; in the data active = GI50 below about 0.43 µM; inactive = the rest
Labels: Yes for active, No for inactive

compound	systemName	assignedCategory
Cc1cc(Cl)ccc1Nc1nc(C(F)(F)F)ccc1C(=O)N/N=C/c1ccc(Cl)cc1	HL-60(TB) leukemia	No
O=C(Nc1cccc(-n2cc(-c3ccncc3)c(-c3cc(O)cc(Cl)c3)n2)c1)Nc1ccc(Cl)c(C(F)(F)F)c1	HL-60(TB) leukemia	No
COc1cccc(-c2nn(-c3ccccc3)cc2-c2ccnc(NCCCNC(=O)Nc3ccc(Cl)c(Cl)c3)c2)c1	HL-60(TB) leukemia	No
CC1OC(n2c3ccccc3c3c4c(c5c6ccccc6[nH]c5c32)C(=O)N(CCN[C@@H]2CCC[C@H]2N)C4=O)CC(O)C1O (stereo not given in full)	HL-60(TB) leukemia	No
O=C1C(N2CC2)=C(N2CC2)C(=O)C(N2CC2)=C1N1CC1	HL-60(TB) leukemia	Yes

###

system: SF-295 CNS; test: NCI tumour cell line growth inhibition, 48 h; in the data active = GI50 below about 0.43 µM; inactive = the rest
Labels: t (active), f (inactive)

compound	systemName	assignedCategory
COc1cc(Nc2c(C#N)cnc3cc(OCCCN4CCN(C)CC4)c(OC)cc23)c(Cl)cc1Cl	SF-295 CNS	f
CC(=O)OC[C@]12CC[C@@H](C(=O)CBr)[C@@H]1[C@H]1CC[C@@H]3[C@@]4(C)CCCNC(C)(C)[C@@H]4CC[C@@]3(C)[C@]1(C)CC2	SF-295 CNS	f
C=CCC1(O)c2ccccc2C(=O)c2c(NCCN(CC(=O)OCC)CC(=O)OCC)cccc21 (centres undefined)	SF-295 CNS	f
CCCCCCCCC/C=C/C=C/C(=O)NCC(=O)NC1C(O)C(O)C(Nc2ncnc3nc[nH]c23)OC1C(O)CO (centres undefined)	SF-295 CNS	t
O=C(Nc1cccc(-n2cc(-c3ccncc3)c(-c3ccc(Cl)c(O)c3)n2)c1)c1ccc(N2CCOCC2)c(C(F)(F)F)c1	SF-295 CNS	f
O=C(Nc1ccncc1)C(=O)c1cn(Cc2ccc(Cl)cc2)c2ccccc12	SF-295 CNS	t
O=S(=O)(Nc1ccc(Br)c(Cl)c1)c1ccc(-c2cnc(C3CC3)o2)cc1	SF-295 CNS	t
COC(=O)[C@@]12OC[C@]34[C@H]([C@@H](O)[C@@H]1O)[C@@]1(C)[C@H](O)C(=O)C=C(C)[C@@H]1C[C@H]3OC(=O)C(OC(C)=O)[C@@H]24 (some centres undefined)	SF-295 CNS	t
O=c1oc(Cl)c(Cl)c2ccccc12	SF-295 CNS	f
Cc1ccc(C(CC(=O)c2ccccc2)C2C(=O)NC(=O)NC2=O)cc1 (centres undefined)	SF-295 CNS	f
Nc1nc(N)c2nc(CNc3ccc(C(=O)NC(CC(=O)O)C(=O)O)cc3)cnc2n1 (centres undefined)	SF-295 CNS	f
CCn1cnc(C[C@H](NC(=O)[C@@H](NC(=O)Nc2cc(C(F)(F)F)cc(C(F)(F)F)c2)C(C)C)C(=O)OC)c1	SF-295 CNS	f
CCn1cc(C(=O)N/N=C/c2ccccc2)c(=O)c2cc(F)c(N3CCNC(C)C3)c(F)c21 (centres undefined)	SF-295 CNS	f
O=C1c2cccc(NCCN=Cc3cc([N+](=O)[O-])ccc3O)c2C(=O)c2c(NCCN=Cc3cc([N+](=O)[O-])ccc3O)cccc21	SF-295 CNS	f

###

tested on: CAKI-1 renal; test: NCI tumour cell line growth inhibition, 48 h
Reported TGI is given for each of the following compounds.
parameterMeasured: TGI

compound	parameterMeasured	observedResult
C=CCC1(O)c2ccccc2C(=O)c2c(NCCN(CC(=O)OCC)CC(=O)OCC)cccc21 (stereo not given)	TGI	> 100 µM
COC1OC(CBr)C(OC(=O)c2ccccc2)C(O)C1Br (stereo not given)	TGI	> 100 µM
COc1ccc(-c2nc(-c3ccccc3)c(-c3ccccc3)[nH]2)cc1OC1CCCC1	TGI	> 100 µM
CCOC(=O)c1cn2c(n1)sc1c(Cl)c(Cl)ccc12	TGI	65.3 µM
COc1cccc(C2=C(c3c(C)n(C)c4ccccc34)C(=O)NC2=O)c1	TGI	> 25 µM
C[C@@H](c1ccccc1)N1CN(C(=O)OCc2ccccc2)C(C)(C)CC1=O	TGI	> 100 µM
Fc1ccc(C(OCCN2CCC3CCC(C2)N3C/C=C/c2ccco2)c2ccc(F)cc2)cc1 (stereo not given)	TGI	27.9 µM
COC(=O)/C(=N\NC(=O)C[N+](C)(C)C)C(C(=O)OC)C(=O)C(=O)Nc1ccccc1C(N)=O (stereo not given)	TGI	> 100 µM
COc1ccc(C(=O)c2sc(Nc3ccc(Cl)cc3)nc2N)cc1	TGI	42.2 µM
COc1cc(-c2cc(-c3ccccc3)nc(-c3c(OC)ccc4c(C)cc(=O)oc34)c2)cc(OC)c1OC	TGI	> 100 µM
